test system: HPB-ALL; assay: selective drug sensitivity score (sDSS, relative to normal bone marrow) (sDSS (score)); higher = more potent and effective on the cell line relative to normal bone marrow cells; details: 72 h;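 also: ALL cell lines in 384-well plates, five doses spanning 10,000-fold, each plate scaled between vehicle and 100 µmol/L benzalkonium chloride controls, sDSS an adapted area-under-curve metric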
I would appreciate it if you labelled entries Condition met when selective drug sensitivity score is 0 or higher, otherwise Condition not met.

INSERT INTO assay_data (compound, class_label) VALUES
  ('CNC(=O)c1ccc(C)c(-n2c(C)cc(OCc3ccc(F)cc3F)c(Br)c2=O)c1 (top concentration 1000 nM)', 'Condition met'),
  ('Cc1ccc(NS(=O)(=O)c2cccc(C#N)c2)c2[nH]cc(C#N)c12 [E7820] (top concentration 50000 nM)', 'Condition met'),
  ('CN1CC[C@@H](NC(=O)Nc2ccc(C#N)cc2)C[C@@H]1c1nc2ccccc2[nH]1 [Glasdegib] (top concentration 1000 nM)', 'Condition met'),
  ('O=C(Nc1c[nH]nc1-c1nc2ccc(CN3CCOCC3)cc2[nH]1)NC1CC1 [AT9283] (top concentration 1000 nM)', 'Condition not met'),
  ('C[C@@H]1COC(Nc2ccc3ncnc(Nc4ccc(OCc5nccs5)c(Cl)c4)c3c2)=N1 [Varlitinib] (top concentration 10000 nM)', 'Condition met');

====

system: SUP-B15; test: selective drug sensitivity score (sDSS, relative to normal bone marrow) (sDSS (score)); higher = more potent and effective on the cell line relative to normal bone marrow cells; settings: 72 h
I would appreciate it if you labelled entries yes when selective drug sensitivity score is 4 or higher, otherwise no.

INSERT INTO measurements (molecule, system_tested, class_label) VALUES
  ('Nc1ncnc2c1c(-c1cccc(OCc3ccccc3)c1)cn2[C@H]1C[C@@H](CN2CCC2)C1 [NVP-AEW541] (top concentration 10000 nM)', 'SUP-B15', 'no'),
  ('CCS(=O)(=O)N1CC(CC#N)(n2cc(-c3ncnc4[nH]ccc34)cn2)C1 [Baricitinib] (top concentration 2500 nM)', 'SUP-B15', 'no'),
  ('COCCNCc1ccc(-c2cc3nccc(Oc4ccc(NC(=O)C5(C(=O)Nc6ccc(F)cc6)CC5)cc4F)c3s2)nc1 [Sitravatinib] (top concentration 2500 nM)', 'SUP-B15', 'yes'),
  ('O=C1CCc2c(Oc3ccc4c(c3)[C@@H]3[C@H](O4)[C@H]3c3nc4cc(C(F)(F)F)ccc4[nH]3)ccnc2N1 [Lifirafenib (BGB-283)] (top concentration 10000 nM)', 'SUP-B15', 'yes'),
  ('COc1cc([C@@H]2c3cc4c(cc3[C@@H](O[C@@H]3O[C@@H]5CO[C@@H](C)O[C@H]5[C@H](O)[C@H]3O)[C@H]3COC(=O)[C@H]23)OCO4)cc(OC)c1O [Etoposide] (top concentration 10000 nM)', 'SUP-B15', 'yes'),
  ('CN1CCN(C(=O)c2ccc3cc(CCNc4ncnc5ccc(C#N)cc45)ccc3c2)CC1 [Senexin_B] (top concentration 1000 nM)', 'SUP-B15', 'no'),
  ('Cn1cc(CNCC2CCN(c3ncc(C(=O)NO)cn3)CC2)c2ccccc21 [Quisinostat] (top concentration 1000 nM)', 'SUP-B15', 'yes'),
  ('N#CC1(c2ccc(NC(=O)c3cccnc3NCc3ccncc3)cc2)CCCC1 [Apatinib] (top concentration 10000 nM)', 'SUP-B15', 'no'),
  ('C=CC(=O)Nc1cc(Nc2nccc(-c3cn(C)c4ccccc34)n2)c(OC)cc1N(C)CCN(C)C [Osimertinib] (top concentration 2500 nM)', 'SUP-B15', 'no'),
  ('CN[C@@H]1C[C@H]2O[C@@](C)([C@@H]1OC)n1c3ccccc3c3c4c(c5c6ccccc6n2c5c31)C(=O)N[C@H]4O [UCN-01] (top concentration 10000 nM)', 'SUP-B15', 'no');

====

system: MOLT-14; assay: selective drug sensitivity score (sDSS, relative to normal bone marrow) (sDSS (score)); higher = more potent and effective on the cell line relative to normal bone marrow cells; conditions: 72 h
Quantity Name: selective drug sensitivity score

INSERT INTO results (compound, quantity_name, result) VALUES
  ('Nc1ccccc1NC(=O)c1ccc(CNc2nccc(-c3cccnc3)n2)cc1 [Mocetinostat] (top concentration 10000 nM)', 'selective drug sensitivity score', 9.14),
  ('Cn1cnc2c(F)c(Nc3ccc(Br)cc3Cl)c(C(=O)NOCCO)cc21 [Selumetinib] (top concentration 10000 nM)', 'selective drug sensitivity score', 7.2),
  ('Cc1c2oc3c(C)ccc(C(=O)N[C@@H]4C(=O)N[C@H](C(C)C)C(=O)N5CCC[C@H]5C(=O)N(C)CC(=O)N(C)[C@@H](C(C)C)C(=O)O[C@@H]4C)c3nc-2c(C(=O)N[C@@H]2C(=O)N[C@H](C(C)C)C(=O)N3CCC[C@H]3C(=O)N(C)CC(=O)N(C)[C@@H](C(C)C)C(=O)O[C@@H]2C)c(N)c1=O [Dactinomycin] (top concentration 1000 nM)', 'selective drug sensitivity score', 16.9),
  ('CN1CCN(C(=O)c2ccc3cc(CCNc4ncnc5ccc(C#N)cc45)ccc3c2)CC1 [Senexin_B] (top concentration 1000 nM)', 'selective drug sensitivity score', 2.1);

====

test system: MN-60; test: selective drug sensitivity score (sDSS, relative to normal bone marrow) (sDSS (score)); higher = more potent and effective on the cell line relative to normal bone marrow cells; conditions: 72 h
Reported selective drug sensitivity score is given for each of the following compounds.
Quantity Name: selective drug sensitivity score

INSERT INTO assay_data (compound, system_tested, quantity_name, measured_number) VALUES
  ('O=C1CCC(N2C(=O)c3ccccc3C2=O)C(=O)N1 (centres undefined) [Thalidomide] (top concentration 10000 nM)', 'MN-60', 'selective drug sensitivity score', -0.14),
  ('CN(C)C(=O)c1ccc(S(=O)(=O)c2ccc(NC(=O)[C@@](C)(O)C(F)(F)F)c(Cl)c2)cc1 [AZD7545] (top concentration 10000 nM)', 'MN-60', 'selective drug sensitivity score', 3.3),
  ('C[C@@H]1COC(Nc2ccc3ncnc(Nc4ccc(OCc5nccs5)c(Cl)c4)c3c2)=N1 [Varlitinib] (top concentration 10000 nM)', 'MN-60', 'selective drug sensitivity score', 0.02),
  ('O=C1CCc2c(Oc3ccc4c(c3)[C@@H]3[C@H](O4)[C@H]3c3nc4cc(C(F)(F)F)ccc4[nH]3)ccnc2N1 [Lifirafenib (BGB-283)] (top concentration 10000 nM)', 'MN-60', 'selective drug sensitivity score', 1.48);

====

Reported selective drug sensitivity score is given for each of the following molecules.
system: MOLT-14; assay: selective drug sensitivity score (sDSS, relative to normal bone marrow) (sDSS (score)); higher = more potent and effective on the cell line relative to normal bone marrow cells; conditions: 72 h
Quantity Name: selective drug sensitivity score

INSERT INTO results (molecule, measured_number) VALUES
  ('COc1cccc2c1C(=O)c1c(O)c3c(c(O)c1C2=O)C[C@@](O)(C(=O)CO)C[C@@H]3O[C@H]1C[C@H](N)[C@@H](O)[C@H](C)O1 [Epirubicin] (top concentration 1000 nM)', 11.6),
  ('COCCNCc1ccc(-c2cc3nccc(Oc4ccc(NC(=O)C5(C(=O)Nc6ccc(F)cc6)CC5)cc4F)c3s2)nc1 [Sitravatinib] (top concentration 2500 nM)', 1.08),
  ('Cc1ccc(-n2nc(C(C)(C)C)cc2NC(=O)Nc2ccc(OCCN3CCOCC3)c3ccccc23)cc1 [Doramapimod] (top concentration 10000 nM)', -0.24),
  ('CC1(C)CCC(c2ccc(Cl)cc2)=C(CN2CCN(c3ccc(C(=O)NS(=O)(=O)c4ccc(N[C@H](CCN5CCOCC5)CSc5ccccc5)c(S(=O)(=O)C(F)(F)F)c4)cc3)CC2)C1 [Navitoclax] (top concentration 10000 nM)', 12.7),
  ('CC[C@@H]1[C@H](F)C(=O)N[C@@H]1COc1nccc2cc(C(N)=O)c(OC)cc12 (top concentration 10000 nM)', 1.38),
  ('CN[C@@H]1C[C@H]2O[C@@](C)([C@@H]1OC)n1c3ccccc3c3c4c(c5c6ccccc6n2c5c31)C(=O)N[C@H]4O [UCN-01] (top concentration 10000 nM)', 6.14),
  ('COc1cc([C@@H]2c3cc4c(cc3[C@@H](O[C@@H]3O[C@@H]5CO[C@@H](C)O[C@H]5[C@H](O)[C@H]3O)[C@H]3COC(=O)[C@H]23)OCO4)cc(OC)c1O [Etoposide] (top concentration 10000 nM)', 21.5),
  ('NC(=O)/C(=C/n1cnc(-c2cc(C(F)(F)F)cc(C(F)(F)F)c2)n1)c1cncnc1 [Eltanexor] (top concentration 10000 nM)', 15.4),
  ('CO[C@@H]1[C@H](N(C)C(=O)c2ccccc2)C[C@H]2O[C@]1(C)n1c3ccccc3c3c4c(c5c6ccccc6n2c5c31)C(=O)NC4 [Midostaurin] (top concentration 10000 nM)', 11.6),
  ('CN1CCC(CNc2ccc3ncc(-c4cccc(OC(F)(F)F)c4)n3n2)CC1 [SGI-1776] (top concentration 10000 nM)', 0.32),
  ('CCOc1ccn(-c2ccc(F)cc2)c(=O)c1C(=O)Nc1ccc(Oc2ccnc(N)c2Cl)c(F)c1 (top concentration 2500 nM)', 0),
  ('O=C(NCc1ccncc1)C12CC3CC(C1)CC(c1ccc(Cl)cc1)(C3)C2 (top concentration 50000 nM)', 1.38),
  ('C[C@@]1(C(=O)Nc2ccc(F)nc2)CCCN1c1nc(Nc2cc(C3CC3)n[nH]2)c2cccn2n1 (top concentration 10000 nM)', 12.7);
